tested on: K4 kissing-loop RNA reporter; test: apparent KD of K4 kissing-loop reporter; higher = weaker reporter binding; conditions: Eterna round: R107; input ligand: FMN 200 uM;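 further: bound reporter read as fluorescence of individual clusters on recovered sequencing chips by microscopy, with normalized cluster intensities fitted with a binding model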
Recorded apparent KD of K4 kissing-loop reporter, one value per entry.
Dear colleague, please return just the value in nM, with no unit written.

# residueSequence, assaySystem, units, apparent KD of K4 kissing-loop reporter
rows = [
    ("AAACAACGUGACGAUACCAGCUUACUCGGCAAGCCAGUGAUGUUGGUGAAAAGGAGUCAAAGCCCUUGGCAGCGUCGAAGGUCUG [Georbeer]", "K4 kissing-loop RNA reporter", "nM", 332),
    ("AAAAUAAUCCAGUGAUGUUGGUAUCCAGAUACCAGCCACGAAAGUGGCCCUUGGCAGCUGUAGGACGUACAAAUAAGUACGUCCA [#OpenEnded 7 #StaticStem #K4Early]", "K4 kissing-loop RNA reporter", "nM", 361),
    ("GAGAAUAACGGAAGGAGCGAGUAAUGGAGUGAUGUUCCAAUCAAUAAAACACAAUAAAAUACUCAGGUAGGUCGCCGUAGUAGUU [Exclusion Argiie B GF 12]", "K4 kissing-loop RNA reporter", "nM", 244),
    ("GUUUCAGUGAUGUUGGAAGGCGAGCGGGAUACCAGCCAAGACUCAGGCCCUUGGCAGCCCACAUAUCCCACGUAGAUAGUAGCUC [Same State - Theophylline A (Freestyle 14)]", "K4 kissing-loop RNA reporter", "nM", 161),
]

Prompt: Quick check: apparent KD of K4 kissing-loop reporter of CGUAGUUGGGCGGCCGCCACUUGAAAAGCUUUGCCAAAGGCAGAGCUCUAGAGUGAUGUUCUGGCAAGGACCGGGUCCAACUACA [#03 K4 Tryptophan B Same State] ?
Completion: 869

###

test system: MS2 coat protein; test: apparent KD of MS2 coat protein; higher = weaker reporter binding; details: Eterna round: R107; input ligand: theophylline 20 uM
Recorded apparent KD of MS2 coat protein, one value per entry.

# residueSequence, assaySystem, apparent KD of MS2 coat protein
records = [
    ("AUAACAUGAGGAUCACCCAUGUAAGCUGAAGGAGCGGACGAAAGUCCAGGUAGGUCGCAGCGUUCCUUCACCUCAUGAGAAGGAG [SSArg-A #30 with U all better]", "MS2 coat protein", "0.0375 µM"),
    ("UGUAUGGACUGAAGGAGCGGAUGAUAUCAUGAGGAUCACCCAUGGAAUAAGGCGAAAGCCAUCCAGGUAGGUCGCAGUCCAUACU", "MS2 coat protein", "0.131 µM"),
    ("UAAUGUGAGAGAAGGAGCGGAGGUCUCGUUACAACAUGAGGAUCACCCAUGUAACGUACCGUCCAGGUAGGUCGCUCUCGGGCGC [lvacmullin]", "MS2 coat protein", "0.0244 µM"),
    ("AACAUGAGGAUCACCCAUGUAUUGGGUGAUACCAGCCUGAAUAAUGGCCCUUGGCAGCACCACGCUAACUUUAUGUCUGCGAACC [Maus]", "MS2 coat protein", "0.263 µM"),
    ("ACUAGUUGUGCAGAUACCAGGCACGAGGAUCACCCGUGUUUGGGAUGUUCGCAUCUUCCUGUCCCUUGGCAGCUGUACAUCUAGA [Omei Theo B Exc v9]", "MS2 coat protein", "0.0543 µM"),
    ("AGCACGGUGAUGGUAGCCGGACGCUAGGUACGAGGACCGGUACGGCCGCCACUCGAAGUCCUACGACAUGAGGAUCACCCAUGUA [Same State Trp A GF13]", "MS2 coat protein", "0.0592 µM"),
    ("AAGGUGAUCCCAGAUACCAGCUUAACAUGAGGAUCACCCAUGUUUGGGACGAAAGUCCCGGGCCCUUGGCAGCUGGGUUGCCAAG [SSTheo B #18]", "MS2 coat protein", "0.402 µM"),
    ("CUUGUUUGUGGAAGGAGCGCGAUUACAUAACAUGAGGAUCACCCAUGUAAGAAAUUAUUCAUGCAGGUAGGUCGCCAUUGGUGGG [Same State Arginine B GF8]", "MS2 coat protein", "0.0531 µM"),
]

Prompt: Write down the reported apparent KD of MS2 coat protein of UUAUGCAGGUCGGCCGCCACUACACACAUGAGGAUCACCCAUGUAGUUACUGGGUGAAGUGGCAGUAGGACCGGGACCCGCACAU [Brourdmod21] , test system: MS2 coat protein.
Completion: 0.388 µM

Prompt: Entry to check: UUAAUCAUUAUAGAAAACUAUAAUGCAGAAGGAGCGUGAUAAAACACAGGUAGGUCGCUGAAGGGAACAUGAGGAUCACCCAUGU [AstrosSSArgA#6]
Completion: 0.0378 µM

Prompt: Entry to check: GUAUACAUGAGGAUCACCCAUGUACCAGAAGGAGCGCUGGAAACAGCAGGUAGGUCGCUGGUAGGUCCUCUAUCUAGACGUUCUA [EAA NP+V+V2 #5]
Completion: 0.214 µM

Prompt: Entry to check: AUAUAUAUGCGAAGGAGCGGGAAAUAUAUAUAUAUAAUCCUAACAUGAGGAUCACCCAUGUCCCAGGUAGGUCGCGCAUAUAUAU [12.A]
Completion: 0.0885 µM
